assay: qHTS assay to identify small molecule HDAC inhibitors - cell viability counter screen (AID 1259365); conditions: HCT-116 viability, CellTiter-Glo ATP luminescence, 2 h; series mostly up to 92.4 µM; further: nearly all actives have a fitted effect of over 50% in size
Active and inactive are the calls of the source. The call rests on the fitted dose curve; in most records, active means well fitted cell-killing curve with a large enough effect in the repeat runs; inconclusive means weak or mixed curves, or effect the other way; inactive means flat fitted curve, though single readings scatter.
The reply should be one of these categories: t = active, f = inactive

Prompt: How was `O=C1CCCCCN1SSN1CCCCCC1=O` classified in this test?
Completion: f

Prompt: How was CCCCC(CC)CN=C(N)NC(N)=NCCCCCCN=C(N)NC(N)=NCC(CC)CCCC (stereo unspecified) classified in this test?
Completion: t

Prompt: How was `NC(=O)NS(=O)(=O)c1ccc(N)cc1` classified in this test?
Completion: f

Prompt: How was `Clc1ccc2nsnc2c1NC1=NCCN1` classified in this test?
Completion: f

Prompt: How was `O=C1c2ccccc2Cc2ccccc21` classified in this test?
Completion: f

Prompt: How was `CCCCCCCCCCCC[N+](C)(C)CCCCCCCCCCCC` classified in this test?
Completion: t

Prompt: How was `CCCC(=O)OC[C@@H](OC(=O)CCC)[C@@H](OC(=O)CCC)[C@H](Cn1c2nc(=O)[nH]c(=O)c-2nc2cc(C)c(C)cc21)OC(=O)CCC` classified in this test?
Completion: f

Prompt: How was `CO[Si](CCCNc1ccccc1)(OC)OC` classified in this test?
Completion: f

Prompt: How was `CCCCN1CCCC[C@H]1C(=O)Nc1c(C)cccc1C` classified in this test?
Completion: f

Prompt: How was `COc1ccc(CN2CCN(C(c3ccc(F)cc3)c3ccc(F)cc3)CC2)c(OC)c1OC` classified in this test?
Completion: f

Prompt: How was `COCCCC/C(=N\OCCN)c1ccc(C(F)(F)F)cc1` classified in this test?
Completion: f

Prompt: How was CCCC1O[C@@H]2C[C@H]3[C@@H]4CCC5=CC(=O)C=C[C@]5(C)[C@H]4[C@@H](O)C[C@]3(C)[C@]2(C(=O)CO)O1 (stereo partly specified) classified in this test?
Completion: f

Prompt: How was `O=C(Nc1cccc(Cl)c1)OCC#CCCl` classified in this test?
Completion: f

Prompt: How was `Cc1onc(-c2c(Cl)cccc2Cl)c1C(=O)N[C@@H]1C(=O)N2[C@@H]1SC(C)(C)[C@@H]2C(=O)O` classified in this test?
Completion: f

Prompt: How was `Nc1nc2ccccc2n1Cc1ccc(F)cc1` classified in this test?
Completion: f

Prompt: How was `CCCC/C=C/CCCCO` classified in this test?
Completion: f

* * *

assay: A CellTox Green Cytotoxicity Assay to monitor cytotoxicity in HepG2 cells - 8 hour (AID 1224890); conditions: CellTox Green fluorescence; series mostly up to 76.8 µM; further: nearly all actives have a fitted effect of over 45% in size
Records with an inconclusive call do not appear. The source made the active and inactive calls. Calls follow the shape of the dose curve; as a rule, active = well fitted activation curve with a large enough effect in the repeat runs; inconclusive = weak or mixed curves; inactive = flat fitted curve, though single readings scatter.
The reply should be one of these categories: active, inactive

Prompt: How was `O=C(O)c1c(Cl)cccc1Cl` classified in this test?
Completion: inactive

Prompt: How was `CN(C)[C@@H]1C(=O)C(C(N)=O)=C(O)[C@@]2(O)C(=O)C3=C(O)c4c(O)ccc(Cl)c4[C@@H](O)[C@H]3C[C@@H]12` classified in this test?
Completion: inactive

Prompt: How was `CC(C)(C)c1ccc(C(=O)CCCN2CCC(OC(c3ccccc3)c3ccccc3)CC2)cc1` classified in this test?
Completion: active
